- System: NCI-H226 lung
- EXPERIMENT SUMMARY: NCI-60 one-dose screen, 48 h (100 = growth as untreated, 0 = no growth, -100 = all killed)
- CONDITION INFO: 10 µM unless noted
This is part of a sample that, as a whole, favours compounds with a hit. Of some 83,000 tested, about 20% had one in any assay.
What growth was measured for each of the following?
Please state the figure in %; there is no need to write the unit.

Query string: Returns the measured growth for the input compound. Input: `CC[C@H](C)[C@H](NC(=O)c1ncccn1)C(=O)N(C)[C@H](C[C@@H](OC(C)=O)c1nc(C(=O)N[C@@H](Cc2ccccc2)C[C@H](C)C(=O)OC)cs1)C(C)C`
Result string: 51.2

Query string: Now the same for CCCN1C(=O)NC(=O)C(CC)(N2C(=O)c3c(F)c(F)c(F)c(F)c3C2=O)C1=O (stereo not given)
Result string: 27.4

Query string: Now the same for `CC1=CC(=Nc2ccc(N(CCCl)CCCl)cc2)C=C(C)C1=O`
Result string: 44.5

Query string: Now the same for `CC(=O)c1cccc(S(=O)(=O)F)c1`
Result string: 97.2

Query string: Now the same for COc1c(O)cc2c(c1OC)-c1ccc(SC)c(=O)cc1C(NC(C)=O)CC2 (stereo not given)
Result string: 23.1

Query string: Now the same for `N#CCN(CC#N)[N+](=O)[O-]`
Result string: 97.9

Query string: Now the same for `O=S1(=O)OCCO1`
Result string: 103

Query string: Now the same for `C/C(=C\c1ccn(-c2ccc(N)cc2F)n1)[C@@H]1C[C@@H]2O[C@]2(C)CCC[C@H](C)[C@H](O)[C@@H](C)C(=O)C(C)(C)[C@@H](O)CC(=O)O1`
Result string: 35.6

Query string: Now the same for `CC1(C)C=Cc2c(ccc3c2[N+]([O-])=C2C3=C[C@@]34NC(=O)[C@]5(CCCN5C3=O)C[C@@H]4C2(C)C)O1`
Result string: 84.5

Query string: Now the same for `Cc1ccc(N2CCN(CCC#N)CC2)cc1`
Result string: 92.1

----------
- System: A549/ATCC NSCLC
- EXPERIMENT SUMMARY: NCI-60 one-dose screen, 48 h (100 = growth as untreated, 0 = no growth, -100 = all killed)
- CONDITION INFO: 10 µM unless noted
About 83,000 compounds went through this panel and 20% of them were active in at least one assay; those are over-represented in the sample as a whole.
What growth was measured for each of the following?
Please state the figure in %; there is no need to write the unit.

Query string: Returns the measured growth for the input molecule. Input: `[N-]=[N+]=CC(=O)CCC(=O)C=[N+]=[N-]`
Result string: 113

Query string: Now the same for `O=C(O)CNCP(=O)(O)O`
Result string: 102

Query string: Now the same for `Oc1ccccc1C=NCCN=Cc1ccccc1O.[Fe]`
Result string: 61.6

Query string: Now the same for `CC[C@H](C)[C@H](NC(=O)CN(C)C)C(=O)N(C)[C@H](C[C@@H](OC(C)=O)c1nc(C(=O)NC23CC(C(=O)OC)(C2)C3)cs1)C(C)C`
Result string: 19.3

Query string: Now the same for ClC1OC(Cl)(Cl)C(Cl)(Cl)OC1(Cl)Cl (stereo unspecified)
Result string: 102

Query string: Now the same for `Oc1ccccc1C=NCCN=Cc1ccccc1O`
Result string: 98.7

----------
- System: NCI-H522 lung
- EXPERIMENT SUMMARY: NCI-60 one-dose screen, 48 h (100 = growth as untreated, 0 = no growth, -100 = all killed)
- CONDITION INFO: 10 µM unless noted
Compounds without any hit were thinned out: in the full panel of roughly 83,000, 20% have a hit.
What growth was measured for each of the following?
Please state the figure in %; there is no need to write the unit.

Query string: Returns the measured growth for the input molecule. Input: `CC[C@H](C)[C@H]1O[C@]2(C=C[C@@H]1C)C[C@@H]1C[C@@H](C/C=C(\C)[C@@H](O[C@H]3C[C@H](OC)[C@@H](O[C@H]4C[C@H](OC)[C@@H](NC)[C@H](C)O4)[C@H](C)O3)[C@@H](C)/C=C/C=C3\CO[C@@H]4[C@H](O)C(C)=C[C@@H](C(=O)O1)[C@]34O)O2`
Result string: -70.3

Query string: Now the same for CC1=CC(=O)CCC12CCOC2=O (configuration not stated)
Result string: 96.1

Query string: Now the same for `C/C(=C(\c1ccc(OCCN2CCOCC2)cc1)c1ccc(OC(=O)Cc2ccccc2)cc1)c1ccc(Cl)cc1`
Result string: 72.9

Query string: Now the same for `CCCC[C@H]1C(=O)O[C@H](C)[C@H](NC(=O)c2cccc(NC=O)c2O)C(=O)O[C@@H](C)[C@@H]1OC(=O)CC(C)C`
Result string: 51.2

Query string: Now the same for CC(=O)OC1CC2(O)C(CCC3(C)C(c4ccc(=O)oc4)CCC32O)C2(C)CCC(OC3OC(CO)C(O)C(O)C3O)C=C12 (configuration not stated)
Result string: -39.2

Query string: Now the same for `C[C@]12CCc3nc(-c4ccc(O)c(O)c4)sc3C1=CC[C@@H]1[C@@H]2CC[C@]2(C)C(=O)CC[C@@H]12`
Result string: 8.61

Query string: Now the same for CC12CCC3C(CCC4CC(O)CCC43C)C1CCC2=O (configuration not stated)
Result string: 61.9

----------
- Tested on: M14 melanoma
- EXPERIMENT SUMMARY: NCI-60 one-dose screen, 48 h (100 = growth as untreated, 0 = no growth, -100 = all killed)
- CONDITION INFO: 10 µM unless noted
- Method: Growth inhibition of the M14 human tumor cell line is measured as a screen for anti-cancer activity. Cells are grown in 96 well plates and exposed to the test compound for 48 hours. Compounds are tested at a single concentration, which is 10^-5 M for most compounds. The reported endpoint is percent growth (GI% or GIPRCNT), where numbers from 0 - 100% represent growth inhibition, and numbers from -100% - 0 represent cell death. For example, a value of 40 represents 60% growth inhibition. […]
This is part of a sample that, as a whole, favours compounds with a hit. Of some 83,000 tested, about 20% had one in any assay.
METRIC NAME: growth (%)
Please state the figure in %; there is no need to write the unit.

Query string: Returns the measured growth for the input compound. Input: C[C@]12CCC3[C@@H](C[C@@H]4SC(Nc5ccccc5)=N[C@@]45CC(=O)CC[C@]35C)[C@@H]1CCC2=O (some centres undefined)
Result string: 0.48

Query string: Now the same for `C[C@H](O)CCC(=O)c1ccoc1`
Result string: 108

Query string: Now the same for `C[C@]12CCc3sc(Nc4ccc(F)cc4F)nc3C1=CC[C@@H]1[C@@H]2CC[C@]2(C)C(=O)CC[C@@H]12`
Result string: 57.8

Query string: Now the same for `CC1(C)CN=C(NN=C(/C=C/c2ccc(C(F)(F)F)cc2)/C=C/c2ccc(C(F)(F)F)cc2)NC1`
Result string: -71.7

Query string: Now the same for `CC/C(Cc1ccccc1)=C(\c1ccc(OCCN2CCCC2)cc1)c1ccc(OC(=O)NCc2ccccc2)cc1`
Result string: -60.7

Query string: Now the same for ClC1OC(Cl)(Cl)C(Cl)(Cl)OC1(Cl)Cl (centres undefined)
Result string: 98.1

Query string: Now the same for COC12CC3(C)C(C4=CC(=O)OC4)CCC3(O)C3CCC4=CC(=O)CCC4(CO1)C32 (centres undefined)
Result string: 92.6

Query string: Now the same for `NC(=O)Oc1cc(OC(N)=O)cc(N(CCCl)CCCl)c1`
Result string: 49.4

Query string: Now the same for `C/C(=C(\c1ccc(OCCN2CCOCC2)cc1)c1ccc(OC(=O)Cc2ccccc2)cc1)c1ccc(Cl)cc1`
Result string: 85.1

----------
- Tested on: BT-549 breast
- EXPERIMENT SUMMARY: NCI-60 one-dose screen, 48 h
- CONDITION INFO: 10 µM unless noted
The panel holds about 83,000 compounds, 20% with a hit somewhere; the sample as a whole holds those more often. Calls of active or inactive are those of the source. Rule for the calls: active = growth percent below 10; inactive = the rest.
Write down the outcome that applies. Available outcomes: Y (active), N (inactive)

Query string: Please share the test call associated with `CC[C@H](CC[C@@H](C)[C@H]1CC[C@H]2[C@@H]3CC[C@H]4C[C@]5(CC[C@]4(C)[C@H]3CC[C@]12C)OO[C@](C)(C(F)(F)F)O5)C(C)C` .
Result string: N

Query string: Now the same for `O=[N+]([O-])c1ccc(P(=O)(O)O)cc1`
Result string: N

Query string: Now the same for `N[C@@H](CCC(=O)CCl)C(=O)O`
Result string: N

Query string: Now the same for `c1ccc2c(c1)sc1ccccc12`
Result string: N

Query string: Now the same for `COC(=O)C1=CO[C@@H](C)[C@@H]2CN3CCc4c([nH]c5cc(OC)ccc45)[C@@H]3C[C@H]12`
Result string: N

Query string: Now the same for `C[C@]12CCC(=O)C[C@@H]1CC[C@@H]1[C@@H]2CC[C@]2(C)[C@@H](OC(=O)N(CCCl)N=O)CC[C@@H]12`
Result string: N

Query string: Now the same for `CC(C)COC(=O)Cc1ccccc1`
Result string: N

Query string: Now the same for `O=[N+]([O-])c1ccc(CI)cc1`
Result string: N

Query string: Now the same for `Cc1cc(NC(=O)NCCCOc2ccc(N3C(N)=NC(N)=NC3(C)C)cc2Cl)ccc1S(=O)(=O)F`
Result string: N

Query string: Now the same for `Cc1nnc([S-])o1.[Au+].c1ccc([PH+](c2ccccc2)c2ccccc2)cc1`
Result string: N

Query string: Now the same for `COc1ccc2c(c1)c(-c1nc(-c3c[nH]c4ncccc34)cs1)cn2CCCCN1CCOCC1`
Result string: N

Query string: Now the same for CC[C@H](C)[C@H](NC(=O)CN(C)C)C(=O)N(C)[C@H](C[C@@H](OC(C)=O)c1nc(C(=O)NC23C4C5C2C2C3C4C52C(=O)OC)cs1)C(C)C (some centres undefined)
Result string: Y

Query string: Now the same for `OCCNC1CCCCC1`
Result string: N

Query string: Now the same for `CCC1(CCSC#N)C(=O)NC(=O)NC1=O`
Result string: N

Query string: Now the same for C=CCOC(=O)C(Br)CC (centres undefined)
Result string: N

Query string: Now the same for `CC[C@H](C)[C@H](NC(=O)[C@H]1CCCCN1C)C(=O)N(C)[C@H](CCc1nc(C(=O)N[C@@H](Cc2ccccc2)C[C@H](C)C(=O)O)cs1)C(C)C`
Result string: Y

Query string: Now the same for `C#COc1cccc(Nc2ncnc3cc(NC(=O)CF)ccc23)c1`
Result string: N

Query string: Now the same for `CC[C@H](C)[C@H](NC(=O)[C@H]1CCCCN1C)C(=O)N(C)[C@H](C(=O)NC12CC(C(=O)N[C@@H](Cc3ccccc3)C[C@H](C)C(=O)OC)(C1)C2)C(C)C`
Result string: N

Query string: Now the same for `CCCC[C@H]1C(=O)O[C@H](C)[C@H](NC(=O)c2cccc(NC=O)c2O)C(=O)O[C@@H](C)[C@@H]1OC(=O)CC(C)C`
Result string: N

Query string: Now the same for `CC1(C)S[C@H]2CC[C@H]3OC(=O)[C@@H]1N23`
Result string: N

Query string: Now the same for `O=C(O)c1cc([N+](=O)[O-])cc([N+](=O)[O-])c1`
Result string: N

Query string: Now the same for CCN1C(=O)NC(=O)C(C)(N2C(=O)c3c(F)c(F)c(F)c(F)c3C2=O)C1=O (centres undefined)
Result string: N

Query string: Now the same for `CC[C@H](C)[C@H](NC(=O)CN(C)C)C(=O)N(C)[C@H](C[C@@H](OC(C)=O)c1nc(C(=O)NC23CC(C(=O)OC)(C2)C3)cs1)C(C)C`
Result string: N

Query string: Now the same for CN1C2CCC1[C@@H](COC(=O)c1ccccc1)[C@@H](O)C2 (some centres undefined)
Result string: N

Query string: Now the same for COC(=O)C12C3C4C1C1C2C3C41NC(=O)c1csc([C@@H](C[C@H](C(C)C)N(C)C(=O)[C@@H](NC(=O)[C@H]2CCCCN2C)C2CC2)OC(C)=O)n1 (some centres undefined)
Result string: Y

Query string: Now the same for `CC1=C([Te]c2ccccc2)C(=O)c2ccccc2C1=O`
Result string: Y

Query string: Now the same for CCCC(C)SP(=S)(SC(C)CCC)SC(C)CCC (centres undefined)
Result string: N

Query string: Now the same for `Nc1nc(=S)nc(N)[nH]1`
Result string: N

Query string: Now the same for `CCC(Br)(CC)C(=O)NC(N)=O`
Result string: N

Query string: Now the same for `C[C@]12CCc3sc(Nc4ccc(OC(F)(F)F)cc4)nc3C1=CC[C@@H]1[C@@H]2CC[C@]2(C)C(=O)CC[C@@H]12`
Result string: N

Query string: Now the same for `COc1ccc2c(c1)c(-c1nc(-c3cn(C)c4ncccc34)cs1)cn2CCCCN1CCOCC1`
Result string: N

Query string: Now the same for `COc1ccc(O)c2c(=O)c3c(OC)cc4c(c3oc12)[C@@H]1C=CO[C@@H]1O4`
Result string: N

Query string: Now the same for N#CC(N)c1ccccc1 (centres undefined)
Result string: N

Query string: Now the same for `C[C@]12CCc3sc(Nc4ccc(O)cc4)nc3C1=CC[C@@H]1[C@@H]2CC[C@]2(C)C(=O)CC[C@@H]12`
Result string: N

Query string: Now the same for `CNC(=O)Oc1ccc(Cl)cc1SSc1cc(Cl)ccc1OC(=O)NC`
Result string: N

Query string: Now the same for `O=C(NC(Cl)=C(Cl)Cl)P(=O)(c1ccccc1)c1ccccc1`
Result string: N

Query string: Now the same for COc1c(O)cc2c(c1OC)-c1ccc(SC)c(=O)cc1C(NC(C)=O)CC2 (centres undefined)
Result string: Y

Query string: Now the same for `COc1cc(-c2ccc(N)c(OC)c2)ccc1N`
Result string: N

Query string: Now the same for `CCCn1cc2c3c(cccc31)[C@H]1C[C@@H](C)CN(C)[C@@H]1C2`
Result string: N
